pIC50 for assorted binders
Target: HLA-A*0201 on mild-acid treated JY cells (human)
Assay: competition vs FL-reference peptide, JY cells
pIC50: −log10 of the molar value.

{"columns": ["BINDER", "pIC50"],
 "data": [
  ["LLALLSCLTV [HCV1 core 178]", 5.12],
  ["GLSPTVWLSV [HBV surface 348]", 5.70],
  ["KLGEFYNQMM [INF B NP 85]", 5.26],
  ["CLGGLLTMV [EBV LMP2 426]", 5.60]
]}
